All values here come from patent US20240090503A1.

Listed here are molecules together with their documented Test B disease control rating.
Tested on: Zymoseptoria tritici (the causal agent of wheat leaf blotch)
test_protocol: Test B: preventive spray on wheat seedlings, wheat leaf blotch, visual disease rating
Format: in vivo
assay_setup: test suspension 250 ppm; wheat seedlings
Marks after values point to notes of the source that are not given here.

Example molecules with recorded Test B disease control rating:
>  <molecule>
N#CCNC(=O)c1coc(Cc2ccc(-c3noc(C(F)(F)F)n3)cc2)n1 [compound 258]

>  <Test B disease control rating>
99* %

$$$$
>  <molecule>
O=S1(=O)CCCCN1Cc1ccc(-c2noc(C(F)(F)F)n2)s1 [compound 323]

>  <Test B disease control rating>
92* %

$$$$
>  <molecule>
Cc1noc(C)c1COc1ccc(-c2noc(C(F)(F)F)n2)cc1 [compound 338]

>  <Test B disease control rating>
10* %

$$$$

Incoming: Any idea what its Test B disease control rating is? The molecule is FC(F)(F)c1nc(-c2ccc(OCc3cccnc3)cc2)no1 [Compound 353]
Outgoing: 73* %

###

Test system: Puccinia recondita f. sp. tritici (the causal agent of wheat leaf rust)
test_protocol: Test C: preventive spray on wheat seedlings, wheat leaf rust, visual disease rating
Type: in vivo
assay_setup: test suspension 10 ppm; wheat seedlings
observable: Test C disease control rating (%)
# output: bare number, implied unit %

Incoming: Give the measured Test C disease control rating of CCOC(=O)c1coc(Cc2ccc(-c3noc(C(F)(F)F)n3)cc2)n1 .
Outgoing: 84

###

Each record here notes measured Test A disease control rating.
Test system: Phakopsora pachyrhizi (the causal agent of Asian soybean rust)
test_protocol: Test A: preventive spray on soybean seedlings, Asian soybean rust, visual disease rating
Format: in vivo
assay_setup: test suspension 10 ppm; soybean seedlings; 100 = 100% disease control, 0 = no control
Answer with the number, then the unit.

>  <compound>
O=C(O)c1cc(C(=O)O)n(Cc2ccc(-c3noc(C(F)(F)F)n3)cc2)n1

>  <Test A disease control rating>
0%

$$$$
>  <compound>
CNC(=O)c1cnn(Cc2ccc(-c3noc(C(F)(F)F)n3)cc2)c1

>  <Test A disease control rating>
100%

$$$$
>  <compound>
CCC#CCOC(=O)c1cnn(Cc2ccc(-c3noc(C(F)(F)F)n3)cc2)c1

>  <Test A disease control rating>
100%

$$$$
>  <compound>
COC(=O)c1cc(COc2ccc(-c3noc(C(F)(F)F)n3)cc2)on1

>  <Test A disease control rating>
0%

$$$$
>  <compound>
FC(F)(F)c1nc(-c2ccc(Cn3cc4c(I)cc(Cl)cc4n3)cc2)no1

>  <Test A disease control rating>
78%

$$$$

Incoming: Dear colleague, I am looking for the recorded Test A disease control rating of the following compound: CCOC(=O)c1cnn(CCn2nc(-c3noc(C(F)(F)F)n3)ccc2=O)c1
Outgoing: 0%

Incoming: What measured Test A disease control rating goes with N#Cc1cnn(CCCc2ccc(-c3noc(C(F)(F)F)n3)cc2)c1 ?
Outgoing: 100%

Incoming: Quick check: Test A disease control rating of FC(F)(F)c1nc(-c2ccc(CCCn3ccc(-c4ccc(Cl)cc4)n3)cc2)no1 ?
Outgoing: 100%

Incoming: Tell me the measured Test A disease control rating of CC(COC(=O)c1cnn(Cc2ccc(-c3noc(C(F)(F)F)n3)cc2)c1)=NOC1CCCCO1 (stereo not drawn) , please.
Outgoing: 100%

Incoming: Given the compound C=CCOC(=O)c1cnn(Cc2ccc(-c3noc(C(F)(F)F)n3)s2)c1 , what is its reported Test A disease control rating?
Outgoing: 100%

Incoming: Fill in: Test A disease control rating of CN(C)C(=O)c1cc(COc2ccc(-c3noc(C(F)(F)F)n3)cc2)on1 is ___
Outgoing: 99%

Incoming: Quick one: Test A disease control rating for CC(C)NC(=O)c1coc(Cc2ccc(-c3noc(C(F)(F)F)n3)cc2)n1 ?
Outgoing: 100%

Incoming: What value of Test A disease control rating has been recorded for this entry: CC(C)COC(=O)c1coc(Cc2ccc(-c3noc(C(F)(F)F)n3)cc2)n1
Outgoing: 100%

Incoming: Quick one: Test A disease control rating for COC(=O)c1cccc2c1cnn2Cc1ccc(-c2noc(C(F)(F)F)n2)cc1 ?
Outgoing: 100%

Incoming: Entry CC(C)(C)NC(=O)c1cnn(Cc2ccc(-c3noc(C(F)(F)F)n3)cc2)c1 : reported Test A disease control rating = ?
Outgoing: 100%

Incoming: # get_value(readout='Test A disease control rating', item= CCOC(=O)c1coc(Cc2ccc(-c3noc(C(F)(F)F)n3)cc2)n1 )
Outgoing: 100%

Incoming: What does the record list as Test A disease control rating for N#CC1(NC(=O)c2coc(Cc3ccc(-c4noc(C(F)(F)F)n4)cc3)n2)CC1 ?
Outgoing: 100%

Incoming: // returns reported Test A disease control rating for input O=C(OCC1CC1)c1cnn(COc2ccc(-c3noc(C(F)(F)F)n3)cc2)c1
Outgoing: 100%
